Assay: 1st phase clinical test: pharmacokinetics of petasin in serum after single oral administration of tablets containing butterbur extract (open crossover; enzyme immunoassay)
Assay type: in vivo, human (clinically healthy men)
Conditions: male, human, serum, oral, 4 tablets, after administering 4 tablets; 2.5 h p.a.; read-out: Petasin serum concentration Max.
Result Type: concentration at 2.5 h (ng/mL)
Answer format: numeric, ng/mL implied, no suffix.

Give its concentration at 2.5 h value. Item: C=C(C)C1CC2(C)C(=CC1=O)CCC(OC(=O)/C(C)=C\C)C2C (stereo not shown) [petasin]
40.9

---

Test: 1st phase clinical test: pharmacokinetics of petasin in serum after single oral administration of tablets containing butterbur extract (open crossover; enzyme immunoassay)
Type: in vivo, human (clinically healthy men)
Conditions: male, human, serum, oral, 2 tablets, after administering 2 tablets; 2.5 h p.a.; read-out: Petasin serum concentration Min.
Result Type: concentration at 2.5 h (ng/mL)
Give just the number in ng/mL; leave the unit off.

Please look up its concentration at 2.5 h: C=C(C)C1CC2(C)C(=CC1=O)CCC(OC(=O)/C(C)=C\C)C2C (stereo not shown)
5.9
